B1: Lysine-specific demethylase 2B, residues 656 to 722; numbered along this chain, Q8NHM5 (parent)
chain: LPHTAVCLVCGEAGKEDTVEEEEGKFNLMLMECSICNEIIHPGCLKIKESEGVVNDELPNCWECPKC

variants of: B1; experiment: abundance fitness (aPCA) (normalised: wild type 0, dead -1); higher = more abundant; growth selection in yeast, the domain comes from the species named; settings: Homo sapiens
Label 1 (yes) when abundance fitness >= -0.3; otherwise 0 (no).

ENTRY_SEQUENCE	CATEGORY
LPHTAVCLVCGEAGKEDTVEEEEGKFNLMLMECSICNEIIHPGCLKIKESEGVVNDELPNCWECPKW	0 (no)
LPHTAVCLVCGEAGKEDTVEEEEGKFNLMLMECSICNEIIHPGCLKIKESEGVVHDELPNCWECPKC	1 (yes)
LPHTAVCGVCGEAGKEDTVEEEEGKFNLMLMECSICNEIIHPGCLKIKESEGVVNDELPNCWECPKC	0 (no)
LPHTAVCLVCGEAGKEDTVEEEEGKFNLMLMECSICNEIIHPGCLKIKESEGVVNDELPWCWECPKC	1 (yes)
LPHTAVCLVCGEAGKEDTVEEEEGKFNLMLMECSICNEIIHPGCLKIKESEGVVNDELPNGWECPKC	1 (yes)
LPHTAVCLVCGEAGKEDTVEEEEGKFALMLMECSICNEIIHPGCLKIKESEGVVNDELPNCWECPKC	1 (yes)
LPHTAVCLVCGEAGKEDTVEEEEGKFNLMLPECSICNEIIHPGCLKIKESEGVVNDELPNCWECPKC	0 (no)
LPHTAVCLVCGEAGKTDTVEEEEGKFNLMLMECSICNEIIHPGCLKIKESEGVVNDELPNCWECPKC	1 (yes)
LPHTAVCLVCGEAGKEDTVEEEEGKFNLMLMECSICNEIIHPGCLKIKEEEGVVNDELPNCWECPKC	1 (yes)
LPHTAVCLVCGEAGKEDTVEEEEGKFNLMLMECSICNEIIHPGCLKIKESEGVVNDLLPNCWECPKC	1 (yes)
LPHTAVCLVCGEAGKEHTVEEEEGKFNLMLMECSICNEIIHPGCLKIKESEGVVNDELPNCWECPKC	1 (yes)
LPHTAVCLVCGEKGKEDTVEEEEGKFNLMLMECSICNEIIHPGCLKIKESEGVVNDELPNCWECPKC	1 (yes)
LPHTAVCSVCGEAGKEDTVEEEEGKFNLMLMECSICNEIIHPGCLKIKESEGVVNDELPNCWECPKC	0 (no)
LPHTAVCLVCGEAGKEDTVEEEEGKFNLMLMECSICNEIIHPRCLKIKESEGVVNDELPNCWECPKC	1 (yes)
LPHTAVCLVCGEAGKEDTVEEEEGKFNLMLLECSICNEIIHPGCLKIKESEGVVNDELPNCWECPKC	1 (yes)
LPHQAVCLVCGEAGKEDTVEEEEGKFNLMLMECSICNEIIHPGCLKIKESEGVVNDELPNCWECPKC	0 (no)
LPHTAVCLVCGEAGKEDTVEEEEGKFNLMLMECSECNEIIHPGCLKIKESEGVVNDELPNCWECPKC	0 (no)
LPHGAVCLVCGEAGKEDTVEEEEGKFNLMLMECSICNEIIHPGCLKIKESEGVVNDELPNCWECPKC	0 (no)
LPHTAVCLVCGEAGKLDTVEEEEGKFNLMLMECSICNEIIHPGCLKIKESEGVVNDELPNCWECPKC	1 (yes)
LPHTAVCLVCGEAGKEDTVVEEEGKFNLMLMECSICNEIIHPGCLKIKESEGVVNDELPNCWECPKC	1 (yes)
LPHTAVCLVCGEAGKEDTVEEEEGKFNLMLMECSICNEIIHPGCLKIKESEGVVNDEQPNCWECPKC	1 (yes)
LPHTAVCLVCCEAGKEDTVEEEEGKFNLMLMECSICNEIIHPGCLKIKESEGVVNDELPNCWECPKC	0 (no)
LPHTAVCLVCGEAGKEDTVEEEEGKFNLMLMECSICNEIIHPGCLKMKESEGVVNDELPNCWECPKC	1 (yes)
LPHTAVCLVCGEAGKEDTSEEEEGKFNLMLMECSICNEIIHPGCLKIKESEGVVNDELPNCWECPKC	1 (yes)
LPHTAVCLVCGEAGKEDTVEEEEGKFNLMLMECSICNEIIHPGCLKIKESEGVVNDELPICWECPKC	1 (yes)
LPHTAVCLVCGEAGKEDTVEEEEGKFNLMLMECSICNEIIHPGCLKIKESESVVNDELPNCWECPKC	1 (yes)
LPHTAVRLVCGEAGKEDTVEEEEGKFNLMLMECSICNEIIHPGCLKIKESEGVVNDELPNCWECPKC	0 (no)
LPHTAVCLVCGEAGKEDTVEEMEGKFNLMLMECSICNEIIHPGCLKIKESEGVVNDELPNCWECPKC	1 (yes)
LPHTAVCLVCGEAGKEDTVEEEEGKFNLMLMECSICNEIIHPGCLKIKESEGVVNDELPNCWECCKC	0 (no)
LPHTAVCLVCGEAAKEDTVEEEEGKFNLMLMECSICNEIIHPGCLKIKESEGVVNDELPNCWECPKC	0 (no)
LPHTAVCLVCGEAGKEKTVEEEEGKFNLMLMECSICNEIIHPGCLKIKESEGVVNDELPNCWECPKC	1 (yes)
LPHTAVCLVCGEAGKEDTVEEEEGLFNLMLMECSICNEIIHPGCLKIKESEGVVNDELPNCWECPKC	0 (no)
LPHTAVCLVCGEAGKEDTVEEEEGKFNLMLMECSICNEIIHPGCLKIKESEGVVNDELPNCWEDPKC	0 (no)
LPHTAVCLVCGEAGKEDTVEEEEGKFNLMLMECSICNEIIHMGCLKIKESEGVVNDELPNCWECPKC	0 (no)
LPHTAVCLVCGEAGKEDTVEEEEGKFNLMLMEGSICNEIIHPGCLKIKESEGVVNDELPNCWECPKC	0 (no)
LPHTAVCLVCGEAGKEDTVEEEEGKFNLMLMECSICNEIIHPGCLKIKEDEGVVNDELPNCWECPKC	1 (yes)
LPHTAVCLVCGEAGKEDTVEEEEGKFNLMLMECSICNEIIHLGCLKIKESEGVVNDELPNCWECPKC	0 (no)
LPHTAVCLVCGEAGKEDTVEEEEGKFNLMLMECSICNEIIHPGCLKIKESEGVVNGELPNCWECPKC	1 (yes)
LPHTAVCLVCGEAGKEDTVEEEEGKKNLMLMECSICNEIIHPGCLKIKESEGVVNDELPNCWECPKC	1 (yes)
LPHTAVCLVCGEAGKEDTVEEEEGKFNLMLMECSICNEIIHPGCLKIKESEGVVNDELPNCWRCPKC	1 (yes)
LPHTAVCLVCGEAGKEDTVEEEEGKFNLMLMECSICNEIIHPGCLKIKESEGPVNDELPNCWECPKC	1 (yes)
LPHTAVCLVCGEAGKEDTVEEEEGKDNLMLMECSICNEIIHPGCLKIKESEGVVNDELPNCWECPKC	0 (no)
LPHTAVCLACGEAGKEDTVEEEEGKFNLMLMECSICNEIIHPGCLKIKESEGVVNDELPNCWECPKC	1 (yes)
EPHTAVCLVCGEAGKEDTVEEEEGKFNLMLMECSICNEIIHPGCLKIKESEGVVNDELPNCWECPKC	1 (yes)
LPHTAVCLVCGEAGKEDTVEEEEGKFNLMLMECVICNEIIHPGCLKIKESEGVVNDELPNCWECPKC	1 (yes)
LPHTAVCLVCGNAGKEDTVEEEEGKFNLMLMECSICNEIIHPGCLKIKESEGVVNDELPNCWECPKC	0 (no)
